Ref: patent US6593337B1

MEASURE: melting point

COMPOUND	MEASURE	RESULT
[O-][n+]1cccc2c1Nc1ccc(Cl)cc1C2(OCCC1CC1)C(F)F (centres unmarked)	melting point	175 to 176 °C
CC(C)COC1(C(F)(F)F)c2cccnc2Nc2ncc(Cl)cc21 (centres unmarked)	melting point	166 to 167 °C
FC(F)C1(Cc2ccccn2)c2cc(Cl)ccc2Nc2ncccc21 (centres unmarked)	melting point	204 to 205 °C
CCN(CC)CC1(C(F)(F)F)c2cc(Cl)ccc2Nc2ncccc21 (centres unmarked)	melting point	110 to 111 °C
[O-][n+]1cc(Cl)cc2c1Nc1ccc(Cl)cc1C2(OCC1CC1)C(F)F (centres unmarked)	melting point	163 to 164 °C

====

MEASURE: melting point

COMPOUND	RESULT
[O-][n+]1cccc2c1Nc1ccc(Cl)cc1C2(Cc1ccccn1)C(F)F (stereo not shown)	210 to 211 °C
CC(C)N(C)CC1(C(F)(F)F)c2cc(Cl)ccc2Nc2ncccc21 (stereo not shown)	157 to 158 °C
[O-][n+]1cccc2c1Nc1ccc(Cl)cc1C2(OCC1CC1)C(F)F (stereo not shown)	185 to 186 °C
Fc1ccc2c(c1)C(OCC1CC1)(C(F)F)c1cccnc1N2 (stereo not shown)	137 to 138 °C
FC(F)C1(OCCC2CC2)c2cc(Cl)ccc2Nc2ncccc21 (stereo not shown)	148 to 149 °C
[O-][n+]1cccc2c1Nc1ncc(Cl)cc1C2(OCC1CC1)C(F)(F)F (stereo not shown)	68 to 69 °C
[O-][n+]1cccc2c1Nc1ccc(F)cc1C2(OCC1CC1)C(F)F (stereo not shown)	166 to 167 °C
